# target: human GLP1R (Homo sapiens)
# Construct: expressed in transfected cells; host or cells: CHO cells (ATCC), transient transfection with pCMV-human GLP1R
# testMethodNotes: Human GLP-1 receptor transfected cell assay (MRE/CRE-luciferase reporter gene, agonist activity)
# Assay type: cell-based
# appliedConditions: 6 h; concentration 10 μM; read-out: Activity (agonist), percentage of the activity of the control
Listing of entries alongside the reported activation at 10 µM.

Record excerpt, results attached:
>  <compound>
CC(C)(C)OC(=O)Nc1ccc(-c2nc(-c3ccc(CC(NC(=O)c4ncn(-c5ccc(C(C)(C)C)cc5)n4)C(=O)O)cc3F)no2)cc1 (stereo not drawn)

>  <target>
human GLP1R (Homo sapiens)

>  <observedMeasurement>
40 to 60%

$$$$
>  <compound>
CC(C)(C)OC(=O)Nc1ccc(-c2nc(-c3ccc(C[C@@H](NC(=O)c4cccc(-c5ccc(Cl)c(F)c5)c4)C(=O)O)cc3F)no2)cc1

>  <target>
human GLP1R (Homo sapiens)

>  <observedMeasurement>
> 60%

$$$$
>  <compound>
Cc1ccc(-c2ccc(C(=O)NC(Cc3ccc(NC(=O)c4cccc(Br)c4)c(F)c3)C(=O)O)o2)cc1 (stereo not drawn)

>  <target>
human GLP1R (Homo sapiens)

>  <observedMeasurement>
> 60%

$$$$

Exercise: Report activation at 10 µM for CC(C)(C)OC(=O)Nc1ccc(-c2nc(-c3ccc(CC(NC(=O)c4cccc(-c5ccc(Cl)cc5)c4F)C(=O)O)cc3F)no2)cc1 (stereo not drawn) tested on human GLP1R (Homo sapiens).
Key: 40 to 60%

Exercise: Would you kindly repeat that for `Cc1ccc(-c2ccc(C(=O)N[C@H](Cc3ccc(-c4cn(-c5ccc(NC(=O)OC(C)C)cc5)nn4)c(F)c3)C(=O)O)o2)cc1` ?
Key: > 60%

Exercise: Would you kindly repeat that for Cc1ccc(-c2ccc(NC(=O)NC(Cc3ccc(-c4noc(-c5ccc(NC(=O)OC(C)(C)C)cc5)n4)c(F)c3)C(=O)O)cn2)cc1 (stereo not drawn) ?
Key: > 60%

* * *

Listing of entries alongside the reported activation at 3 µM.
# target: human GLP1R (Homo sapiens, UniProt P43220)
# Construct: expressed in transfected cells; host or cells: CHO cells (ATCC), transient transfection with pCMV-human GLP1R
# Sequence (P43220 24-463): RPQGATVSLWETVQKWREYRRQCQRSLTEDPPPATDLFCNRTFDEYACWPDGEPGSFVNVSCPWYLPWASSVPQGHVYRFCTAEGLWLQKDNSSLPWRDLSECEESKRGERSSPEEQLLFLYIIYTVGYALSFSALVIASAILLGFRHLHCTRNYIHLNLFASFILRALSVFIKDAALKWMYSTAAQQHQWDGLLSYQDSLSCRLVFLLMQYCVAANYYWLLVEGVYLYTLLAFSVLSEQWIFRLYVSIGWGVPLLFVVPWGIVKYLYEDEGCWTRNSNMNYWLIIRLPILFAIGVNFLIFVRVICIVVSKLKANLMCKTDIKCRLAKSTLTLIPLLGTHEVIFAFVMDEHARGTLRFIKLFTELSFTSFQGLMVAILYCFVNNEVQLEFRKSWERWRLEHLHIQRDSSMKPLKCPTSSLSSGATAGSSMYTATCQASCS
# testMethodNotes: Human GLP-1 receptor transfected cell assay (MRE/CRE-luciferase reporter gene, agonist activity)
# Assay type: cell-based
# appliedConditions: 6 h; concentration 3 μM; read-out: Activity (agonist), percentage of the activity of the control

Record excerpt, results attached:
>  <compound>
COc1ccc(C[C@@H](NC(=O)c2ccc(-c3ccc(C)cc3)o2)C(=O)O)cc1-c1noc(-c2ccc(NC(=O)OC(C)(C)C)cc2)n1 [Compound 6W]

>  <activation at 3 µM>
20 to 40%

$$$$
>  <compound>
Cn1nc(C(C)(C)C)cc1NC(=O)NC(Cc1ccc(-c2noc(-c3ccc(NC(=O)OC(C)(C)C)cc3)n2)c(F)c1)C(=O)O (centres unmarked) [Compound 5B]

>  <activation at 3 µM>
40 to 60%

$$$$
>  <compound>
CC(C)(C)OC(=O)Nc1ccc(-c2nc(-c3ccc(CC(NC(=O)Nc4ccc(-c5ccccc5F)cn4)C(=O)O)cc3F)no2)cc1 (centres unmarked) [Compound 5C]

>  <activation at 3 µM>
> 60%

$$$$
>  <compound>
Cc1ccc(-c2ccc(C(=O)N[C@H](Cc3cc(F)cc(-c4noc(-c5ccc(NC(=O)OC(C)(C)C)cc5)n4)c3)C(=O)O)o2)cc1 [Compound 6X]

>  <activation at 3 µM>
40 to 60%

$$$$

Exercise: // lookup activation at 3 µM for Cc1cc(-n2cc(C(=O)NC(Cc3ccc(-c4noc(-c5ccc(NC(=O)OC(C)(C)C)cc5)n4)c(F)c3)C(=O)O)cn2)ccc1F (centres unmarked) [Compound 3G]
Key: 40 to 60%

Exercise: Would you kindly repeat that for CC(C)(C)OC(=O)Nc1ccc(-c2nc(-c3ccc(CC(NC(=O)c4ccc(-c5ccccn5)s4)C(=O)O)cc3F)no2)cc1 (centres unmarked) [Compound 1X] ?
Key: 40 to 60%

Exercise: Would you kindly repeat that for Cc1ccc(-c2ccc(C(=O)NC(Cc3ccc(-c4noc(-c5ccc(NC(=O)C(C)C)cc5)n4)c(F)c3)C(=O)O)o2)cc1 (centres unmarked) [Compound 2C] ?
Key: 40 to 60%

Exercise: Would you kindly repeat that for CC(C)(C)OC(=O)Nc1ccc(-c2nc(-c3ccc(CC(NC(=O)c4cc(-c5ccc(F)cc5)n[nH]4)C(=O)O)cc3F)no2)cc1 (centres unmarked) [Compound 3R] ?
Key: > 60%

Exercise: Would you kindly repeat that for Cc1ccc(N2CCN(S(=O)(=O)NC(Cc3ccc(-c4noc(-c5ccc(NC(=O)OC(C)(C)C)cc5)n4)c(F)c3)C(=O)O)CC2)cc1 (centres unmarked) [Compound 3Z] ?
Key: > 60%

Exercise: Would you kindly repeat that for CC(C)(C)OC(=O)Nc1ccc(-c2nc(-c3ccc(CC(NC(=O)N4CCC(c5ccccc5)C4)C(=O)O)cc3F)no2)cc1 (centres unmarked) [Compound 5D] ?
Key: > 60%

Exercise: Would you kindly repeat that for CC(C)(C)OC(=O)Nc1ccc(-c2nc(-c3ccc(CC(NC(=O)Nc4ccc(N5CCCCC5)cc4)C(=O)O)cc3F)no2)cc1 (centres unmarked) [Compound 4Y] ?
Key: 20 to 40%

Exercise: Would you kindly repeat that for Cc1cccnc1N1CCCN(C(=O)NC(Cc2ccc(-c3noc(-c4ccc(NC(=O)OC(C)(C)C)cc4)n3)c(F)c2)C(=O)O)CC1 (centres unmarked) [Compound 4R] ?
Key: 20 to 40%

Exercise: Would you kindly repeat that for Cc1ccc(-c2cccc(C(=O)N[C@H](Cc3ccc(-c4noc(-c5ccc(NC(=O)OC(C)(C)C)cc5)n4)c(F)c3)C(=O)O)c2)o1 [Compound 6I] ?
Key: 20 to 40%

Exercise: Would you kindly repeat that for CC(C)(C)OC(=O)Nc1ccc(-c2nc(-c3ccc(CC(NC(=O)c4cccc(-c5ccc(C(F)(F)F)cc5)c4)C(=O)O)cc3F)no2)cc1 (centres unmarked) [Compound 1W] ?
Key: > 60%
